Field: inhibition. Provide a value for each of the compounds that follow.
- system_under_test: Tubulin (Homo sapiens) (UniProt P68371+Q9H4B7+P0DPH7+P68366+Q13509+Q71U36+P04350+Q3ZCM7+P07437+P68363+Q9BQE3+Q6PEY2+Q13885+Q9BVA1+Q9BUF5)
- assay_protocol: Inhibition of [3H]Colchicine binding to tubulin (unknown origin) at 5 uM incubated for 10 mins in presence of GTP by Beckman scintillation counter relative to control
- Format: protein-complex assay
Numbers only, in %.

Some compounds with known inhibition results, for comparison:
| mol | observed |
| --- | --- |
| COc1ccc2c(C(=O)c3cc(OC)c(OC)c(OC)c3)c(-c3ccc(OC)c(N)c3)[nH]c2c1 | 65 |
| COc1ccccc1-c1[nH]c2cc(OC)c(OC)c(OC)c2c1C(=O)c1cc(OC)c(OC)c(OC)c1 | 70 |
| COc1ccc2c(C(=O)c3cc(Cl)cc(Cl)c3)c(-c3ccc(OC)c(O)c3)[nH]c2c1 | 80 |

Give inhibition for each listed item.
1. COc1ccc2c(C(=O)c3cc(F)cc(F)c3)c(-c3ccc(OC)c(O)c3)[nH]c2c1
2. COc1ccc2c(C(=O)c3cc(OC)c(OC)c(OC)c3)c(-c3ccc(OC)c([N+](=O)[O-])c3)[nH]c2c1
3. COc1ccc2c(C(=O)c3cc(OC)c(OC)c(OC)c3)c(-c3ccc(OC)c(Br)c3)[nH]c2c1
4. COc1ccc2c(C(=O)c3cccc(F)c3)c(-c3ccc(OC)c(O)c3)[nH]c2c1
5. COc1cccc(C(=O)c2c(-c3ccc(OC)c(O)c3)[nH]c3cc(OC)ccc23)c1
6. COc1ccc2c(C(=O)c3cccc(Cl)c3)c(-c3ccc(OC)c(O)c3)[nH]c2c1

Reply:
1: 50; 2: 24; 3: 34; 4: 25; 5: 33; 6: 69

----------
- Test system: MDA-MB-231
- assay_protocol: Cytotoxicity against human MDA-MB-231 cells assessed as cell growth inhibition incubated for 96 hrs by SRB assay
- Type: functional
observed_property: GI50 (nM)
Numbers only, in nM.

| mol | GI50, nM |
| --- | --- |
| COc1ccc2c(C(=O)c3cc(Cl)cc(Cl)c3)c(-c3ccc(OC)c(O)c3)[nH]c2c1 | 133 |

Provide the reported GI50 of each entry below, same order.
1. COc1ccc2c(C(=O)c3cccc(F)c3)c(-c3ccc(OC)c(O)c3)[nH]c2c1
2. COc1ccc2c(C(=O)c3cc(OC)c(OC)c(OC)c3)c(-c3ccc(OC)c([N+](=O)[O-])c3)[nH]c2c1

Reply:
7110
275

From: ChEMBL document CHEMBL6078705
